Tested on: HEK293 cells
Experiment: Preliminary screening as DNA vectors, GFP transfection of HEK293 cells
Format: cell-based
Details: HEK293 cells; lipid/DOPE liposome with 75 ng plasmid DNA (psin-EGFP-IRES-Puro); number of cells expressing GFP divided by total number of nuclei (Hoechst)
endpoint_name: Absolute DNA transfection efficiency in HEK293 cells (%)
The reply should contain only the number, in %.

Solved entries (count: 3):
- compound: "CCCCCCCCCCCCCCCSc1nc(NCC2CCN(C)CC2)nc(SCCCCCCCCCCC)n1 [Compound S11S15D10]"
  readout_value: 42.3
- compound: "CCCCCCCCCCCCCCCCNc1nc(NCCCCCCCCCCCCCCCC)nc(NCCCN2CCOCC2)n1 [Compound N16N16D8]"
  readout_value: 0.5
- compound: "CCCCCCCCCCCCCCCNc1nc(NCCCCCCCCCCC)nc(NCCN2CCOCC2)n1 [Compound N11N15D2]"
  readout_value: 0.3

We now examine a further compound.
[in] Entry CCCCCCCCCCCCCCCCNc1nc(NCCCCCCC)nc(NCCN(CC)CC)n1 [Compound N7N16D7] : reported Absolute DNA transfection efficiency in HEK293 cells = ?
[out] 0.0

====

Test system: Hela cells
Experiment: Transfection of Hela cell line, DNA vectors
Type: cell-based
Details: 75 ng plasmid DNA, GFP cells / total cells
# note: boundary value 3% maps to condition not met; Absolute DNA transfection efficiency in Hela cells below it maps to condition met

- record_smiles: "CCCCCCCCCCCCSc1nc(NCCN2CCN(C)CC2)nc(SCCCCCCC)n1"
  target_of_assay: "Hela cells"
  label_class: "condition not met"
- record_smiles: "CCCCCCCCCCCSc1nc(NCCN2CCCC2)nc(SCCCCCCCC)n1"
  target_of_assay: "Hela cells"
  label_class: "condition not met"
- record_smiles: "CCCCCCCCCCCCCNc1nc(NCCCN2CCN(C)CC2)nc(SCCCCCCCC)n1"
  target_of_assay: "Hela cells"
  label_class: "condition not met"
- record_smiles: "CCCCCCCCCCCSc1nc(NCCCCCCCC)nc(NCCN2CCCCC2)n1"
  target_of_assay: "Hela cells"
  label_class: "condition met"
- record_smiles: "CCCCCCCCCCCCSc1nc(NCCN2CCCC2)nc(SCCCCCCCCC)n1"
  target_of_assay: "Hela cells"
  label_class: "condition met"
- record_smiles: "CCCCCCCCCCCCNc1nc(NCCN2CCCC2)nc(SCCCCCCCCC)n1"
  target_of_assay: "Hela cells"
  label_class: "condition not met"
- record_smiles: "CCCCCCCCCCCCNc1nc(NCCN(CC)CC)nc(SCCCCCCCC)n1"
  target_of_assay: "Hela cells"
  label_class: "condition not met"

Would you kindly look at the next entry?
[in] I wonder whether `CCCCCCCCCCCCNc1nc(NCCCN(C)C)nc(SCCCCCCCC)n1` has Absolute DNA transfection efficiency in Hela cells below 3%. Can you tell?
[out] condition not met

====

System: HEK293 cells
Test: Preliminary screening as DNA vectors, GFP transfection of HEK293 cells
Type: cell-based
Details: HEK293 cells; lipid/DOPE liposome with 75 ng plasmid DNA (psin-EGFP-IRES-Puro); number of cells expressing GFP divided by total number of nuclei (Hoechst)
endpoint_name: Absolute DNA transfection efficiency in HEK293 cells (%)
Field: numeric (%). Do not append units.

Examples with answers:
- compound: "CCCCCCCCCCCCCCCCSc1nc(NCCN(CC)CC)nc(SCCCCCCCC)n1 [Compound S8S16D7]"
  readout_value: 11.8
- compound: "CCCCCCCCCNc1nc(NCCCCCCCC)nc(NCCN2CCN(C)CC2)n1 [Compound N8N9D5]"
  readout_value: 0.0
- compound: "CCCCCCCCCCCCCCCCNc1nc(NCCCCCCCCCCCCCCC)nc(NCCN2CCOCC2)n1 [Compound N15N16D2]"
  readout_value: 0.0
- compound: "CCCCCCCCCCCCCCCCCCSc1nc(NCCN2CCCCC2)nc(SCCCCCCCCCCCCCCCCCC)n1 [Compound S18S18D4]"
  readout_value: 0.1
- compound: "CCCCCCCCCCCCCCCCCCSc1nc(NCCCN2CCOCC2)nc(SCCCCCCCCC)n1 [Compound S9S18D8]"
  readout_value: 27.0

[in] Recorded Absolute DNA transfection efficiency in HEK293 cells of CCCCCCCCCCCCSc1nc(NCCN2CCCCC2)nc(SCCCCCCCCC)n1 [Compound S9S12D4] , please.
[out] 0.0
